# IC50 listing for each entry below
Target: EGFR Ex19del T790M C797S (Homo sapiens, UniProt P00533, C797S/DEL746-750/T790M)
Sequence (P00533 with tags, fused parts or gaps DEL746-750/T790M/C797S): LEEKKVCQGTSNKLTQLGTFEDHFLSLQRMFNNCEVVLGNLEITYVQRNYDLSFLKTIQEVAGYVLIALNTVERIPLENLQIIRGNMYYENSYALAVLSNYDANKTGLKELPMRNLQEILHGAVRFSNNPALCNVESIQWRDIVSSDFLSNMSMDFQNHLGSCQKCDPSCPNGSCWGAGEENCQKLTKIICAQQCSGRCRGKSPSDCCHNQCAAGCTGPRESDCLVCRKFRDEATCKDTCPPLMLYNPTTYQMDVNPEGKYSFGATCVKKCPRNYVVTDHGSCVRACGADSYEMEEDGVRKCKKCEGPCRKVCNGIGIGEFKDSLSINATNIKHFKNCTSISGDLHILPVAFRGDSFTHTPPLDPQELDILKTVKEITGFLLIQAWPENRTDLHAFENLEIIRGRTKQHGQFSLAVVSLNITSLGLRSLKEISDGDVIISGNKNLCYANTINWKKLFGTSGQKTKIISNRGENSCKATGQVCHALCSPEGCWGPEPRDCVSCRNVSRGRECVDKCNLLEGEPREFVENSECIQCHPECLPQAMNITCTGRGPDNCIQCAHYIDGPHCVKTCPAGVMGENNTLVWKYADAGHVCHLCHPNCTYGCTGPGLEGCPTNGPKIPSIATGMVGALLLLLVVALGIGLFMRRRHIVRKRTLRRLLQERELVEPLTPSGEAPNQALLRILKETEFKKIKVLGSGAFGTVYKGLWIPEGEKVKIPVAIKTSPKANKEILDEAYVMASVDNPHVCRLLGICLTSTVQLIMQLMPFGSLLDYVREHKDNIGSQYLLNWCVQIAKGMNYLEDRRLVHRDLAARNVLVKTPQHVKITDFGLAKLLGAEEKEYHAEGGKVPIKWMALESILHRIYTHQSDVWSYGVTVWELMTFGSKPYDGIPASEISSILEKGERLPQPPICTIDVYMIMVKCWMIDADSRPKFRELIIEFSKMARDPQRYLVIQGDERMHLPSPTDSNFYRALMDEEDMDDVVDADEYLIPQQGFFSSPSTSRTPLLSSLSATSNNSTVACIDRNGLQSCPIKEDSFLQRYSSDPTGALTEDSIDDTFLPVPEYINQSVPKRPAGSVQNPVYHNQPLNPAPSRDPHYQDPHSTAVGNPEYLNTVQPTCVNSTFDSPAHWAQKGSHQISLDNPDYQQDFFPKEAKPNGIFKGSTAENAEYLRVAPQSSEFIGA
Test Summary: Ba/F3 cell viability, Cell Titer Glo
Condition Context: read-out: IC50 Values; Ba/F3 cells expressing EGFR Ex19del T790M C797S, 72 hours
Test Readout: IC50 (nM)

1) C=CC(=O)N1CC[C@@H](Oc2nc(Nc3ccc(N4CCC(N5CCN(C)CC5)CC4)cc3)c(C(N)=O)nc2CC)C1    1970
2) COc1cc(N2CCC(N)CC2)ccc1Nc1ncc(Cl)c(-c2c[nH]c3ccccc23)n1    1440

====

Target: EGFR Ex19del L718Q (Homo sapiens, UniProt P00533, DEL746-750/L718Q)
Test Summary: Ba/F3 cell viability, Cell Titer Glo
Condition Context: read-out: IC50 Values; Ba/F3 cells expressing EGFR Ex19del L718Q, 72 hours
Test Readout: IC50 (nM)

1) C=CC(=O)N1CC[C@@H](Oc2nc(Nc3ccc(N4CCC(N5CCN(C)CC5)CC4)cc3)c(C(N)=O)nc2CC)C1    2.64

====

Target: EGFR Ex19delT854l (Homo sapiens, UniProt P00533, DEL746-750/T854I)
Test Summary: Ba/F3 cell viability, Cell Titer Glo
Condition Context: read-out: IC50 Values; Ba/F3 cells expressing EGFR Ex19delT854l, 72 hours
Test Readout: IC50 (nM)

1. C=CC(=O)N1CC[C@@H](Oc2nc(Nc3ccc(N4CCC(N5CCN(C)CC5)CC4)cc3)c(C(N)=O)nc2CC)C1    112

====

Target: EGFR L861Q (Homo sapiens, UniProt P00533, L861Q)
Test Summary: Ba/F3 cell viability, Cell Titer Glo
Condition Context: read-out: IC50 Values; Ba/F3 cells expressing EGFR L861Q, 72 hours
pIC50: −log10 of the molar value.
Test Readout: pIC50

1. C=CC(=O)N1CC[C@@H](Oc2nc(Nc3ccc(N4CCC(N5CCN(C)CC5)CC4)cc3)c(C(N)=O)nc2CC)C1    7.11

====

Target: EGFR L718Q (Homo sapiens, UniProt P00533, L718Q)
Sequence (P00533 25-1210 L718Q): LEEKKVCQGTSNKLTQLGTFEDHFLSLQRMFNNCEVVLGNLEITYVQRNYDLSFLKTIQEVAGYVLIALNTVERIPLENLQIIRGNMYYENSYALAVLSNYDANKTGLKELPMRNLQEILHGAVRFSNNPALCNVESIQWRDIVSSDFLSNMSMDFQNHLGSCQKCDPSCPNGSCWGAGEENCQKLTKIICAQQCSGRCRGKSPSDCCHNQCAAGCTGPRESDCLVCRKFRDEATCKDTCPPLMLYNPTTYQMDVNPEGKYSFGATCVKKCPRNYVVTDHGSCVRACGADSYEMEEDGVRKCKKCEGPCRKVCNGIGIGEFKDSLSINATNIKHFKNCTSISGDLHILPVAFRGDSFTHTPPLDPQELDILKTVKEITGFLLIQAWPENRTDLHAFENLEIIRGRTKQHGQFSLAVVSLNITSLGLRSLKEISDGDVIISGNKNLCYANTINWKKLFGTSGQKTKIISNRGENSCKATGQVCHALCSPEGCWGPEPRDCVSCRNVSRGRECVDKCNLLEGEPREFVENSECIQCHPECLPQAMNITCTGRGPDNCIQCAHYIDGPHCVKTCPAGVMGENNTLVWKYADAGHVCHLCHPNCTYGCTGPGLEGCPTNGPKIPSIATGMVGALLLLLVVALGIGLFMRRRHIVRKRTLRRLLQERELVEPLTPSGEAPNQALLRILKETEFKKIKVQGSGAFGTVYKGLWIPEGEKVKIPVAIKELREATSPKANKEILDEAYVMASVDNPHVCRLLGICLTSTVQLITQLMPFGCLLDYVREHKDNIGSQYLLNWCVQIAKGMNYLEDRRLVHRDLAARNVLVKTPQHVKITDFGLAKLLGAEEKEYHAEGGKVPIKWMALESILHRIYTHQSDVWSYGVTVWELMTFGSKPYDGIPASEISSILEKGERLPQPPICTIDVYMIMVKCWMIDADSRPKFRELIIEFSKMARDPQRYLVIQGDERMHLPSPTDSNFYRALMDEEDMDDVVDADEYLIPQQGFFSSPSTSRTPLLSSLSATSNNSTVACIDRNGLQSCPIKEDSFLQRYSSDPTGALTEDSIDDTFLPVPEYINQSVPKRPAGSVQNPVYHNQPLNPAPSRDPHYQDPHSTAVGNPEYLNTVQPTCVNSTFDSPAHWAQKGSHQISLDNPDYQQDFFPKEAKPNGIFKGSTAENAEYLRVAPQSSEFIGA
Test Summary: Ba/F3 cell viability, Cell Titer Glo
Condition Context: read-out: IC50 Values; Ba/F3 cells expressing EGFR L718Q, 72 hours
pIC50: −log10 of the molar value.
Test Readout: pIC50

1. C=CC(=O)N1CC[C@@H](Oc2nc(Nc3ccc(N4CCC(N5CCN(C)CC5)CC4)cc3)c(C(N)=O)nc2CC)C1    6.13

====

Target: EGFR S784F (Homo sapiens, UniProt P00533, S784F)
Test Summary: Ba/F3 cell viability, Cell Titer Glo
Condition Context: read-out: IC50 Values; Ba/F3 cells expressing EGFR S784F, 72 hours
Test Readout: IC50 (nM)

1. C=CC(=O)N1CC[C@@H](Oc2nc(Nc3ccc(N4CCC(N5CCN(C)CC5)CC4)cc3)c(C(N)=O)nc2CC)C1 [Naquotinib]    70.2

====

Target: EGFR G719S (Homo sapiens, UniProt P00533, G719S)
Test Summary: Ba/F3 cell viability, Cell Titer Glo
Condition Context: read-out: IC50 Values; Ba/F3 cells expressing EGFR G719S, 72 hours
Test Readout: IC50 (nM)

1) C=CC(=O)N1CC[C@@H](Oc2nc(Nc3ccc(N4CCC(N5CCN(C)CC5)CC4)cc3)c(C(N)=O)nc2CC)C1    36.7

====

Target: EGFR L858R G724S (Homo sapiens, UniProt P00533, G724S/L858R)
Test Summary: Ba/F3 cell viability, Cell Titer Glo
Condition Context: read-out: IC50 Values; Ba/F3 cells expressing EGFR L858R G724S, 72 hours
Test Readout: IC50 (nM)

1) C=CC(=O)N1CC[C@@H](Oc2nc(Nc3ccc(N4CCC(N5CCN(C)CC5)CC4)cc3)c(C(N)=O)nc2CC)C1    108

====

Target: EGFR L833F (Homo sapiens, UniProt P00533, L833F)
Test Summary: Ba/F3 cell viability, Cell Titer Glo
Condition Context: read-out: IC50 Values; Ba/F3 cells expressing EGFR L833F, 72 hours
Test Readout: IC50

1) C=CC(=O)N1CC[C@@H](Oc2nc(Nc3ccc(N4CCC(N5CCN(C)CC5)CC4)cc3)c(C(N)=O)nc2CC)C1    0.411 µM

====

Target: EGFR D770insNPG (Homo sapiens, UniProt P00533, INS770NPG)
Test Summary: Ba/F3 cell viability, Cell Titer Glo
Condition Context: read-out: IC50 Values; Ba/F3 cells expressing EGFR D770insNPG, 72 hours
Test Readout: IC50 (nM)

1. C=CC(=O)N1CC[C@@H](Oc2nc(Nc3ccc(N4CCC(N5CCN(C)CC5)CC4)cc3)c(C(N)=O)nc2CC)C1    175

====

Target: EGFR G724S T790M (Homo sapiens, UniProt P00533, G724S/T790M)
Sequence (P00533 25-1210 G724S/T790M): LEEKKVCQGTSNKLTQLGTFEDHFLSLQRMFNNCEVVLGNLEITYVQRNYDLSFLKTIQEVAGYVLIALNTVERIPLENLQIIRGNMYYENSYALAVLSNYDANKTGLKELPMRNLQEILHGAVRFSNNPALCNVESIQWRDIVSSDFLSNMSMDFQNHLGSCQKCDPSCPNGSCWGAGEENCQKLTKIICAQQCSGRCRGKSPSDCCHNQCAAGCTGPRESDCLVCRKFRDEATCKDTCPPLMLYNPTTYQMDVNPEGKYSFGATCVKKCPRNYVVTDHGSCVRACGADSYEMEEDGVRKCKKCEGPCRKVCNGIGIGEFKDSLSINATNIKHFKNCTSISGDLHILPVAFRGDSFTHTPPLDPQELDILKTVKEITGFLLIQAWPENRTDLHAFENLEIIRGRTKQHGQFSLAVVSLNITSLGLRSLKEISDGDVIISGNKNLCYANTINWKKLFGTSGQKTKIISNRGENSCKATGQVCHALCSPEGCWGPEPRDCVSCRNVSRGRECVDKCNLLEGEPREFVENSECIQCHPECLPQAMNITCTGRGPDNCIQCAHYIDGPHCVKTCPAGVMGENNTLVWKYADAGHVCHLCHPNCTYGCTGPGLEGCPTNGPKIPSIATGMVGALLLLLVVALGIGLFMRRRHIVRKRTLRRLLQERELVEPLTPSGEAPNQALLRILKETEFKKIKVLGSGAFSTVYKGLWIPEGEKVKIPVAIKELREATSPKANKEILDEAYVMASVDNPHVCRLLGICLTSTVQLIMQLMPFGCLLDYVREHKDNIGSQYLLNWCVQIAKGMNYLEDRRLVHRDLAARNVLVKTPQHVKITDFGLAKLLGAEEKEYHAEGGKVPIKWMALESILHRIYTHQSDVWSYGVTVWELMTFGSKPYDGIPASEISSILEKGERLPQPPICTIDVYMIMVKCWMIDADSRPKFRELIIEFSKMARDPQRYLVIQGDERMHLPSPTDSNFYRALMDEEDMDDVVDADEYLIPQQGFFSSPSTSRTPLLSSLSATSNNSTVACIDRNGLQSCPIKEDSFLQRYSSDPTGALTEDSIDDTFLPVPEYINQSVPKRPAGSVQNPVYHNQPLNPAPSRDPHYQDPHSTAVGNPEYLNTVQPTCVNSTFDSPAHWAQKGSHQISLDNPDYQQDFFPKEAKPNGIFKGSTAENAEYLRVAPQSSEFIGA
Test Summary: Ba/F3 cell viability, Cell Titer Glo
Condition Context: read-out: IC50 Values; Ba/F3 cells expressing EGFR G724S T790M, 72 hours
pIC50: −log10 of the molar value.
Test Readout: pIC50

1. COc1cc(N2CCC(N)CC2)ccc1Nc1ncc(Cl)c(-c2c[nH]c3ccccc23)n1 [AZD3463]    6.16
2. C=CC(=O)N1CC[C@@H](Oc2nc(Nc3ccc(N4CCC(N5CCN(C)CC5)CC4)cc3)c(C(N)=O)nc2CC)C1 [Naquotinib]    7.73

====

Property: pIC50; scope: individual compounds
Target: EGFR L858R T790M L718V (Homo sapiens, UniProt P00533, L718V/L858R/T790M)
Test Summary: Ba/F3 cell viability, Cell Titer Glo
Condition Context: read-out: IC50 Values; Ba/F3 cells expressing EGFR L858R T790M L718V, 72 hours
pIC50: −log10 of the molar value.
Test Readout: pIC50

1. COc1cc(N2CCC(N)CC2)ccc1Nc1ncc(Cl)c(-c2c[nH]c3ccccc23)n1    6.18
2. C=CC(=O)N1CC[C@@H](Oc2nc(Nc3ccc(N4CCC(N5CCN(C)CC5)CC4)cc3)c(C(N)=O)nc2CC)C1    8.39

====

Target: EGFR G719A/R776C (Homo sapiens, UniProt P00533, G719A/R776C)
Test Summary: Ba/F3 cell viability, Cell Titer Glo
Condition Context: read-out: IC50 Values; Ba/F3 cells expressing EGFR G719A/R776C, 72 hours
pIC50: −log10 of the molar value.
Test Readout: pIC50

1. C=CC(=O)N1CC[C@@H](Oc2nc(Nc3ccc(N4CCC(N5CCN(C)CC5)CC4)cc3)c(C(N)=O)nc2CC)C1 [Naquotinib]    7.41

====

Target: EGFR G719A L861Q (Homo sapiens, UniProt P00533, G719A/L861Q)
Test Summary: Ba/F3 cell viability, Cell Titer Glo
Condition Context: read-out: IC50 Values; Ba/F3 cells expressing EGFR G719A L861Q, 72 hours
pIC50: −log10 of the molar value.
Test Readout: pIC50

1) C=CC(=O)N1CC[C@@H](Oc2nc(Nc3ccc(N4CCC(N5CCN(C)CC5)CC4)cc3)c(C(N)=O)nc2CC)C1    8.37

====

Target: EGFR L858R L718Q (Homo sapiens, UniProt P00533, L718Q/L858R)
Test Summary: Ba/F3 cell viability, Cell Titer Glo
Condition Context: read-out: IC50 Values; Ba/F3 cells expressing EGFR L858R L718Q, 72 hours
Test Readout: IC50 (nM)

1) C=CC(=O)N1CC[C@@H](Oc2nc(Nc3ccc(N4CCC(N5CCN(C)CC5)CC4)cc3)c(C(N)=O)nc2CC)C1    747

====

Target: EGFR L861R (Homo sapiens, UniProt P00533, L861R)
Test Summary: Ba/F3 cell viability, Cell Titer Glo
Condition Context: read-out: IC50 Values; Ba/F3 cells expressing EGFR L861R, 72 hours
pIC50: −log10 of the molar value.
Test Readout: pIC50

1. C=CC(=O)N1CC[C@@H](Oc2nc(Nc3ccc(N4CCC(N5CCN(C)CC5)CC4)cc3)c(C(N)=O)nc2CC)C1 [Naquotinib]    7.91

====

Target: EGFR L858R/T790M/L718Q (Homo sapiens, UniProt P00533, L718Q/L858R/T790M)
Sequence (P00533 25-1210 L718Q/T790M/L858R): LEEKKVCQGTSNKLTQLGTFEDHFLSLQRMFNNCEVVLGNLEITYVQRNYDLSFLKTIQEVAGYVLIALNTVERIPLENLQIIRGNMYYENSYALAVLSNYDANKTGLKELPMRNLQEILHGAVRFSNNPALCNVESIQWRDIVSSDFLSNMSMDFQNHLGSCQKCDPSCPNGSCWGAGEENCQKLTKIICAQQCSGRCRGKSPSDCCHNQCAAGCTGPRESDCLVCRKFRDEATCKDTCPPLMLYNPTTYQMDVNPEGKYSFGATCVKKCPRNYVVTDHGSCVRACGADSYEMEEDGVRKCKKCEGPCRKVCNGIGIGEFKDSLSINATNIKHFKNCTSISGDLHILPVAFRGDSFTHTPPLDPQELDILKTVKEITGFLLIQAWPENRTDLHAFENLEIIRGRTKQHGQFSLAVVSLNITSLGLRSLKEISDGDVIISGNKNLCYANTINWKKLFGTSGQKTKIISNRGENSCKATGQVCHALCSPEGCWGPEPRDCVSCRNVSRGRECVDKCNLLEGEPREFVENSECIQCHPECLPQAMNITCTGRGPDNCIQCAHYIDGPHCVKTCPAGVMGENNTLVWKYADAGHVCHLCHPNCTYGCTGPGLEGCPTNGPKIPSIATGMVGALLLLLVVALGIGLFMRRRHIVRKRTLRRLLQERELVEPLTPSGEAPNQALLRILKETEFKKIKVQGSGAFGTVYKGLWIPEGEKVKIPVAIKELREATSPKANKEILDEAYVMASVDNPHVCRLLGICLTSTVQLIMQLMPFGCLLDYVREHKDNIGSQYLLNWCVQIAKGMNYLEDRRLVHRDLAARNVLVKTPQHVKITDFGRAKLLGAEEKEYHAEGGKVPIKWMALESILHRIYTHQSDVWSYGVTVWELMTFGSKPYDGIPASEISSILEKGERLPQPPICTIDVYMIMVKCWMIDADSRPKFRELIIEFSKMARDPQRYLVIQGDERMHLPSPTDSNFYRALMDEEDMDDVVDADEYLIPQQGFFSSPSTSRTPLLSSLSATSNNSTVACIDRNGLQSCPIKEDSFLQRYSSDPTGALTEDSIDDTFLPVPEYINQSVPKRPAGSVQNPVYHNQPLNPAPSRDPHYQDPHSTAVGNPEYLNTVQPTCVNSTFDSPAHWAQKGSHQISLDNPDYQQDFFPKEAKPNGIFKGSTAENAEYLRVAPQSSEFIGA
Test Summary: Ba/F3 cell viability, Cell Titer Glo
Condition Context: read-out: IC50 Values; Ba/F3 cells expressing EGFR L858R/T790M/L718Q, 72 hours
pIC50: −log10 of the molar value.
Entries and their pIC50
Test Readout: pIC50

1) COc1cc(N2CCC(N)CC2)ccc1Nc1ncc(Cl)c(-c2c[nH]c3ccccc23)n1    5.95
2) C=CC(=O)N1CC[C@@H](Oc2nc(Nc3ccc(N4CCC(N5CCN(C)CC5)CC4)cc3)c(C(N)=O)nc2CC)C1    7.04

All values here come from patent US20260240847A1.
